B1: tRNA (parent)
chain: CUCUCGGUAGCCAAGUUGGUUUAAGGCGCAAGACUUUAAUUUAUCACUACGAAAUCUUGAGAUCGGGCGUUCGACUCGCCCCCGGGAGAUUUUUUCCUCGAGCAA

Variants of: B1
Assay: nonsense suppression (GFP-seq) (ratio to wild type); higher = more function; SUP4oc tRNA, yeast GFP reporter sort-seq
This sample holds only a part of the variants without activity.
readout: nonsense suppression
Reply with just the number.

Previously resolved entries follow.
A9G G61A A87G; 0.188
U55C C79U; 0.183
C29U A54U; 0.869

Entry U55C C83G , nonsense suppression reported as 0.0314

Lookup result for C12U U16G ; measured nonsense suppression: 0.785

What the record says about U4G A9C : nonsense suppression is 0.0511

nonsense suppression for G26C A60C is 0.027

// U4G U20G : nonsense suppression value = 0.834

Just so you know, measured nonsense suppression for U21C U63A came out at 1.12

Summary for this variant, U4A A31U : nonsense suppression is 0.0312

Quick note, nonsense suppression for G78A G85U landed at 0.0673

Short answer for A24C U76C : nonsense suppression was 0.88

nonsense suppression measured on U20G C29U = 1.12
